- Target System: binding of B7-1 to CD28 (Homo sapiens, UniProt P10747+P33681)
- Construct: ligating the Fc region of human IgG to the C-terminal side of the extracellular region of B7-1; Fc region of human IgG (from plasmid pTB1455); expressed in transfected cells; soluble B7-1-Ig made in house by sB7-1-Ig-CHO-20 and purified from its supernatant
- Sequence (P10747 19-220): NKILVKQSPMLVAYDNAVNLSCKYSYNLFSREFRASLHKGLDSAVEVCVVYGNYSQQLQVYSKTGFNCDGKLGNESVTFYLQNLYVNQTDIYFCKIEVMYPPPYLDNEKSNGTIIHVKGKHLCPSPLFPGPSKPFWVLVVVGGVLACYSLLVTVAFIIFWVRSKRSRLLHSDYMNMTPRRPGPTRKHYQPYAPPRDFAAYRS
- Sequence (P33681 with tags, fused parts or gaps): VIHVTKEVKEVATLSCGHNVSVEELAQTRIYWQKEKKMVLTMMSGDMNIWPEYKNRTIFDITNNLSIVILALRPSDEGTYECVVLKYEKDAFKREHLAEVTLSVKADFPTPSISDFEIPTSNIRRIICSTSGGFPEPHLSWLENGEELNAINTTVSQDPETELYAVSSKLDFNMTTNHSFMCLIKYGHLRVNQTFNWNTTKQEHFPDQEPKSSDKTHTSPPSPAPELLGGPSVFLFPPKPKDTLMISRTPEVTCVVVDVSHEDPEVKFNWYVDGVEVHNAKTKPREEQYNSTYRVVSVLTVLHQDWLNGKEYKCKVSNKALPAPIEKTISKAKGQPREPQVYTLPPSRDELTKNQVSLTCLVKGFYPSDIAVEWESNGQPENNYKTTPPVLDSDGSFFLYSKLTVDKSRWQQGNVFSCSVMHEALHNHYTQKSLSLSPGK
- Protocol Notes: Binding inhibition test using soluble B7-1-Ig
- Reported Conditions: 10 μg/ml soluble B7-1-Ig; fixed CD28-expressing CHO cells; 30 minutes at room temperature; read-out: IC50 (concentration for 50% inhibition of binding) (converted)
Observation Type: IC50 (nM)

COC(=O)c1c(SCC(=O)O)c(O)c([N+](=O)[O-])c2oc3c(Cl)c(C)c(Cl)c(O)c3c(=O)c12 = 238
COC(=O)c1c(SCC(=O)O)c(O)c(I)c2oc3c(Cl)c(C)c(Cl)c(O)c3c(=O)c12 = 171
COC(=O)c1c(SCC(=O)O)c(O)cc2oc3c(Cl)c(C)c(Cl)c(O)c3c(=O)c12 = 305
